Molecular target: pWT PDZ2 L391F (Homo sapiens, UniProt Q12959, C378A/I342W/L391F)
Construct: constituting SAP97 residues 311–407 and the mutations I342W and C372A; His-tagged lipoyl protein domain (N, cleaved yes); made in house
Sequence (Q12959 311-407 I342W/C378A/L391F): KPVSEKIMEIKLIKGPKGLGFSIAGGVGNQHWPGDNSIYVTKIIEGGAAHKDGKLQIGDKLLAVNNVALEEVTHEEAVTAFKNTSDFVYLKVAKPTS
Assay: Stopped-flow binding kinetics, peptide with pWT PDZ2 L391F
Details: displacement of pre-formed complex (1 µM PDZ, 2 µM peptide) with 100 and 150 µM dansylated RRRETQV peptide, pH 7.5, 10 °C, value ± standard error
Ends that are not written are not given here.
Reported koff values are given for each entry in this list.
The reply should contain only the number, in s⁻¹.

Example results:
>  <Substance>
Ac-PGKETQL [PGKETQL]

>  <koff [s⁻¹]>
5

$$$$
>  <Substance>
Ac-SARSTDV [SARSTDV]

>  <koff [s⁻¹]>
4

$$$$
>  <Substance>
Ac-RRRETQV [RRRETQV, reference compound]

>  <koff [s⁻¹]>
0.6

$$$$

**Query** What does the data say about its koff? Entry: Ac-YRRESAI [YRRESAI]
**Result** 15

**Query** What does the data say about its koff? Entry: Ac-RSISTDV [RSISTDV]
**Result** 4.3

**Query** What does the data say about its koff? Entry: Ac-KRKETLV [KRKETLV]
**Result** 0.6

**Query** What does the data say about its koff? Entry: Ac-VSKETPL [VSKETPL]
**Result** 8.8

----------
target: PDZØ9 (pWT SAP97 PDZ2 L391F/K392M) (Homo sapiens, UniProt Q12959, C378A/I342W/K392M/L391F); construct: constituting SAP97 residues 311–407 and the mutations I342W and C372A; His-tagged lipoyl protein domain (N, cleaved yes); made in house; test: Stopped-flow binding kinetics, peptide with PDZØ9; conditions: Kd = koff/kon, stopped-flow, pH 7.5, 10 °C; ± propagated standard error
Ends that are not written are not given here.
Reported pKd values are given for each entry in this list.
Hey, just a heads up that pKd is the negative log base 10 of the concentration in molar.

>  <Substance>
Ac-KRKETLV [KRKETLV]

>  <Readout type>
pKd

>  <Value measured>
7.10

$$$$
>  <Substance>
Ac-RRRETQV [RRRETQV, reference compound]

>  <Readout type>
pKd

>  <Value measured>
7.22

$$$$
>  <Substance>
Ac-YRRESAI [YRRESAI]

>  <Readout type>
pKd

>  <Value measured>
6.11

$$$$
>  <Substance>
Ac-PGKETQL [PGKETQL]

>  <Readout type>
pKd

>  <Value measured>
6.62

$$$$
>  <Substance>
Ac-RSISTDV [RSISTDV]

>  <Readout type>
pKd

>  <Value measured>
6.60

$$$$
>  <Substance>
Ac-SARSTDV [SARSTDV]

>  <Readout type>
pKd

>  <Value measured>
6.59

$$$$
>  <Substance>
Ac-VSKETPL [VSKETPL]

>  <Readout type>
pKd

>  <Value measured>
6.12

$$$$
>  <Substance>
Ac-NSKETVV [NSKETVV]

>  <Readout type>
pKd

>  <Value measured>
6.80

$$$$

**Query** What does the data say about its pKd? Entry: Ac-TSRETDL [TSRETDL]
**Result** 6.77

**Query** What does the data say about its pKd? Entry: Ac-EKKHTLL [EKKHTLL]
**Result** 6.25

----------
molecular target: pWT PDZ2 L391F (Homo sapiens, UniProt Q12959, C378A/I342W/L391F); construct: constituting SAP97 residues 311–407 and the mutations I342W and C372A; His-tagged lipoyl protein domain (N, cleaved yes); made in house; test: Stopped-flow binding kinetics, peptide with pWT PDZ2 L391F; settings: Kd = koff/kon, pH 7.5, 10 °C, ± propagated standard error
Ends that are not written are not given here.
Readout type: pKd
Hey, just a heads up that pKd is the negative log base 10 of the concentration in molar.

>  <Substance>
Ac-KRKETLV [KRKETLV]

>  <System tested>
pWT PDZ2 L391F (Homo sapiens, UniProt Q12959, C378A/I342W/L391F)

>  <Readout type>
pKd

>  <Value measured>
7.10

$$$$
>  <Substance>
Ac-RRRETQV [RRRETQV, reference compound]

>  <System tested>
pWT PDZ2 L391F (Homo sapiens, UniProt Q12959, C378A/I342W/L391F)

>  <Readout type>
pKd

>  <Value measured>
7.15

$$$$

Query substance follows.
**Query** What does the data say about its pKd? Entry: Ac-RSISTDV [RSISTDV]
**Result** 6.74

----------
Biological target: pWT PDZ2 (pseudo wild type SAP97 PDZ2, I342W/C378A) (Homo sapiens, UniProt Q12959, C378A/I342W)
Construct: constituting SAP97 residues 311–407 and the mutations I342W and C372A; His-tagged lipoyl protein domain (N, cleaved yes); made in house
Sequence (Q12959 311-407 I342W/C378A): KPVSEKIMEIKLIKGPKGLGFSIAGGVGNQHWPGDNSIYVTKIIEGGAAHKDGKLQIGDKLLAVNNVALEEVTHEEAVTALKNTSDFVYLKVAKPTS
Test: Stopped-flow binding kinetics, peptide with pWT PDZ2
Settings: Kd = koff/kon, pH 7.5, 10 °C, ± propagated standard error
Ends that are not written are not given here.
Reported Kd values are given for each entry in this list.
The reply should contain only the number, in nM.

Example results:
>  <Substance>
Ac-YRRESAI [YRRESAI]

>  <Kd / nM>
4600

$$$$
>  <Substance>
Ac-TSRETDL [TSRETDL]

>  <Kd / nM>
2200

$$$$

Query substance follows.
**Query** What does the data say about its Kd? Entry: Ac-RRRETQV [RRRETQV, reference compound]
**Result** 400

----------
Reported koff values are given for each entry in this list.
Biological target: pWT PDZ2 L391F (Homo sapiens, UniProt Q12959, C378A/I342W/L391F)
Construct: constituting SAP97 residues 311–407 and the mutations I342W and C372A; His-tagged lipoyl protein domain (N, cleaved yes); made in house
Sequence (Q12959 311-407 I342W/C378A/L391F): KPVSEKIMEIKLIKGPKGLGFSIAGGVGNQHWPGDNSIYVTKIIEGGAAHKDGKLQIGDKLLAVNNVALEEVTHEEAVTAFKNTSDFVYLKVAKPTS
Experiment: Stopped-flow binding kinetics, peptide with pWT PDZ2 L391F
Settings: displacement of pre-formed complex (1 µM PDZ, 2 µM peptide) with 100 and 150 µM dansylated RRRETQV peptide, pH 7.5, 10 °C, value ± standard error
Source text: The basic experimental parameters determined were the rate constants of association (kon) and dissociation (koff) for each peptide and for all PDZ variants, respectively, in a procedure described in Fig. 2 for the interaction between PDZØ9 and the EKKHTLL peptide as an example. […]
Ends that are not written are not given here.
The reply should contain only the number, in s⁻¹.

Example results:
>  <Substance>
Ac-TSRETDL [TSRETDL]

>  <System tested>
pWT PDZ2 L391F (Homo sapiens, UniProt Q12959, C378A/I342W/L391F)

>  <Value measured>
3.8

$$$$
>  <Substance>
Ac-NSKETVV [NSKETVV]

>  <System tested>
pWT PDZ2 L391F (Homo sapiens, UniProt Q12959, C378A/I342W/L391F)

>  <Value measured>
1.9

$$$$

Query substance follows.
**Query** What does the data say about its koff? Entry: Ac-EKKHTLL [EKKHTLL]
**Result** 7.1
